- Test system: OVCAR-3
- Experiment description: cells
- Format: cell-based, human
- Condition summary: 72 h
pIC50: −log10 of the molar value. Ends that are not written are not given here.

>  <Substance>
KKKKLKKILKKLFQFINQLDNQLQDIKQNK-NH2 [LP1]

>  <Assayed system>
OVCAR-3

>  <pIC50>
5.31

$$$$
>  <Substance>
H-HHHHLKKILKKLFQFINQLDNQLQDIHHHH-OH [LP40]

>  <Assayed system>
OVCAR-3

>  <pIC50>
5.05

$$$$

###

- Test system: SK-OV3
- Experiment description: cells
- Format: cell-based
- Condition summary: Homo sapiens, SK-OV-3; Ovarian; DMEM + 10% FCS; 72 hours
pIC50: −log10 of the molar value.

>  <Structure as smiles>
CC(C)C[C@H](NC(=O)[C@H](Cc1ccccc1)NC(=O)c1cnccn1)B(O)O

>  <pIC50>
7.72

$$$$

###

- Test system: HCT-15
- Experiment description: cells
- Assay type: cell-based, human
- Condition summary: 72 h
pIC50: −log10 of the molar value. Ends that are not written are not given here.
Listed here: items and their measured pIC50.
Readout label: pIC50

>  <Substance>
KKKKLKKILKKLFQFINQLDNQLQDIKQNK-NH2 [LP1]

>  <Assayed system>
HCT-15

>  <Readout label>
pIC50

>  <Measurement>
5.33

$$$$
>  <Substance>
H-HHHHLKKILKKLFQFINQLDNQLQDIHHHH-OH [LP40]

>  <Assayed system>
HCT-15

>  <Readout label>
pIC50

>  <Measurement>
5.15

$$$$

###

- Tested on: T-47D
- Experiment description: cells
- Type: cell-based
- Condition summary: Homo sapiens, T47D; Breast; RPMI-1640 +10% FCS + 0,2U/mL Insulin; 72 hours
Readout label: IC50 (nM)

>  <Compound>
CC(C)C[C@H](NC(=O)[C@H](Cc1ccccc1)NC(=O)c1cnccn1)B(O)O [Bortezomib]

>  <Readout label>
IC50

>  <Measurement>
8.6

$$$$

###

- System: panel of 20 different human cancer and 2 noncancerous cell lines
- Type: cell-based
- Condition summary: 72 h

>  <Substance>
H-HHHHLKKILKKLFQFINQLDNQLQDIHHHH-OH [LP40]

>  <IC50>
> 100 µM

$$$$

###

Ends that are not written are not given here.

>  <Substance>
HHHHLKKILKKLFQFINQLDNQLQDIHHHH [LP40]

>  <IC50>
> 70000 nM

$$$$
>  <Substance>
KKKKLKKLLKKLFQFLNQLDNQLQDLKQNK-NH2 [LP32]

>  <IC50>
< 2000 nM

$$$$
>  <Substance>
KKKKIKKIIKKIFQFINQIDNQIQDIKQNK-NH2 [LP33]

>  <IC50>
< 2000 nM

$$$$

###

- Tested on: MSC_UC
- Experiment description: cells
- Type: cell-based
- Condition summary: Homo sapiens; Non-cancerous; Promocell MSC-Medium C-28010 + Sup. C39810; 72 hours

>  <Structure as smiles>
CC(C)C[C@H](NC(=O)[C@H](Cc1ccccc1)NC(=O)c1cnccn1)B(O)O

>  <IC50>
4.7 nM

$$$$

###

Examples of substances with documented IC50 follow.
Ends that are not written are not given here.

>  <Substance>
KKKKVKKVVKKVFQFVNQVDNQVQDVKQNK-NH2 [LP31]

>  <IC50>
> 128 µM

$$$$
>  <Substance>
KKKKIKKIIKKIFQFINQIDNQIQDIKQNK-NH2 [LP33]

>  <IC50>
> 128 µM

$$$$
>  <Substance>
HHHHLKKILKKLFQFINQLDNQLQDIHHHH [LP40]

>  <IC50>
> 70 µM

$$$$
